target: recombinant sEH (soluble epoxide hydrolase, EPHX2) (Homo sapiens (Human)); assay: biochemical fluorometric sEH inhibition assay with Phome substrate; conditions: recombinant sEH purified from Sf9 insect cells, 2 nM sEH, 5 μM Phome, 60 minutes at 30° C.
pIC50: −log10 of the molar value.
endpoint-label: pIC50

Sample answers from the record:
# smi, endpoint-value
rows = [
    ("COc1ccc(CNC(=O)c2ccc(CN3CCN(c4ccc(O)nn4)CC3)s2)c(OC(F)(F)F)c1", 8.55),
    ("O=C(NCc1ccccc1C(F)(F)F)c1ccc(CN2CCN(C(=O)c3cccnc3)CC2)s1", 9.77),
]

[1] CSCCC(=O)N1CCN(Cc2ncc(C(=O)NCc3ccc(Cl)cc3Cl)s2)CC1
[2] O=C(NCc1ccccc1OC(F)(F)F)c1ccc(CN2CCN(c3ccc(O)nn3)CC2)s1
Which value of pIC50 is greater, the one for 1 or the one for 2 ? Answer = label.
2
(2: 8.67, 1: 7.94)

* * *

biological target: recombinant sEH (soluble epoxide hydrolase, EPHX2) (Homo sapiens (Human), UniProt P34913); assay: biochemical fluorometric sEH inhibition assay with Phome substrate; details: recombinant sEH purified from Sf9 insect cells, 2 nM sEH, 5 μM Phome, 60 minutes at 30° C.
Sequence (P34913 whole entry): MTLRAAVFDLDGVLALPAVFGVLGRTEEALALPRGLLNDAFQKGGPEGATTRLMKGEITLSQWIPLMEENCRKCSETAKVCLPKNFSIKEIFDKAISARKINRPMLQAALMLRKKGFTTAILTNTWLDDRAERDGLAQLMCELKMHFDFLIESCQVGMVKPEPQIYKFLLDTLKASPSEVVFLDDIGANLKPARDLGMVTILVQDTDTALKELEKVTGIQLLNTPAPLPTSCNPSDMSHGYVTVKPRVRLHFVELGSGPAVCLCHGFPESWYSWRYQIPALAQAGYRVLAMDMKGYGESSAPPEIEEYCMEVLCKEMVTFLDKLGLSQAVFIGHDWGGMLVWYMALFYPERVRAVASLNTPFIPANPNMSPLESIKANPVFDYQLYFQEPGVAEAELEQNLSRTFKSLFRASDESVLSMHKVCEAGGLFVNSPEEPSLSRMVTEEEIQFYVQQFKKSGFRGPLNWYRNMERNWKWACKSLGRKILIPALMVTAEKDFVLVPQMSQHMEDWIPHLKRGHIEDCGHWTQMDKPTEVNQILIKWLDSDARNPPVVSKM
endpoint-label: IC50 (nM)

Sample answers from the record:
# molecule, IC50 (nM)
rows = [
    ("CCCn1nccc1CNC(=O)c1ccc(CN2CCN(C(=O)c3c(C)cc(=O)oc3C)CC2)s1", 2.54),
    ("Cc1n[nH]c(C)c1C(=O)N1CCN(Cc2ncc(C(=O)NCc3ccc(Cl)cc3Cl)s2)CC1", 5.24),
]

[1] O=C(NCc1ccc(Cl)cc1Cl)c1ccc(CN2CCN(C(=O)c3cnn4ccccc34)CC2)s1
[2] CC(C(=O)N1CCN(Cc2ccc(C(=O)NCc3ccccc3OC(F)(F)F)s2)CC1)N(C)C (centres unmarked)
Which value of IC50 is greater, the one for 1 or the one for 2 ? Answer = label.
2

[A] N#CCC(=O)N1CCN(Cc2ncc(C(=O)NCc3ccc(Cl)cc3Cl)s2)CC1
[B] NC1(C(=O)N2CCN(Cc3ccc(C(=O)NCc4ccc(Cl)cc4Cl)s3)CC2)CCOCC1
[C] O=C(NCc1ccc(Cl)cc1Cl)c1cnc(CN2CCN(C(=O)C3COCCO3)CC2)s1 (centres unmarked)
Rank order required: IC50, descending. // format: requested-order list of labels
A, C, B
(A: 73.6 nM, C: 18 nM, B: 2.14 nM)

[A] CSCCC(=O)N1CCN(Cc2ccc(C(=O)NCc3ccccc3OC(F)(F)F)s2)CC1
[B] O=C(NCc1ccc(Cl)cc1Cl)c1cnc(CN2CCN(C(=O)c3ccc[nH]c3=O)CC2)s1
Which value of IC50 is greater, the one for A or the one for B ? Answer = label.
B
(B: 58.6 nM, A: 1.76 nM)

* * *

target: recombinant sEH (soluble epoxide hydrolase, EPHX2) (Homo sapiens (Human)); experiment: biochemical fluorometric sEH inhibition assay with Phome substrate; details: recombinant sEH purified from Sf9 insect cells, 2 nM sEH, 5 μM Phome, 60 minutes at 30° C.
pIC50: −log10 of the molar value.
endpoint-label: pIC50

Sample answers from the record:
# compound, pIC50
rows = [
    ("Cc1cnc(C)c(N2CCN(Cc3ccc(C(=O)NCc4ccccc4OC(F)(F)F)s3)CC2)n1", 8.56),
    ("Cc1cc(=O)oc(C)c1C(=O)N1CCN(Cc2ccc(C(=O)NCc3cccc(Cl)c3Cl)s2)CC1", 8.85),
    ("COCCCC(=O)N1CCN(Cc2ccc(C(=O)NCc3ccccc3OC(F)(F)F)s2)CC1", 8.74),
    ("COc1ccc(CNC(=O)c2ccc(CN3CCN(c4ccc(CO)cn4)CC3)s2)c(OC(F)(F)F)c1", 8.71),
    ("Cc1cc(=O)oc(C)c1C(=O)N1CCN(Cc2ccc(C(=O)NCc3ccccc3OC(F)(F)F)s2)CC1", 9.04),
]

[a] CC(C)(O)CC(=O)N1CCN(Cc2ccc(C(=O)NCc3ccccc3OC(F)(F)F)s2)CC1
[b] Cc1cc(N2CCN(Cc3ccc(C(=O)NCc4ccc(Cl)cc4Cl)s3)CC2)cc(C)n1
Looking only at measured pIC50, which entry is lower, a or b ? Answer = label.
b

* * *

target: recombinant sEH (soluble epoxide hydrolase, EPHX2) (Homo sapiens (Human)); experiment: biochemical fluorometric sEH inhibition assay with Phome substrate; settings: recombinant sEH purified from Sf9 insect cells, 2 nM sEH, 5 μM Phome, 60 minutes at 30° C.
pIC50: −log10 of the molar value.
endpoint-label: pIC50

Sample answers from the record:
# compound, endpoint-value
rows = [
    ("CC(C(=O)N1CCN(Cc2ncc(C(=O)NCc3ccc(Cl)cc3Cl)s2)CC1)N1CCCC1=O (centres unmarked) [Example 169]", 8.06),
    ("Cc1cc(=O)oc(C)c1C(=O)N1CCN(Cc2ncc(C(=O)NCc3ccc(Cl)cc3Cl)s2)CC1 [Example 162]", 7.91),
    ("CCOc1ccccc1C(=O)N1CCN(Cc2ccc(C(=O)NCCC(C)C)s2)CC1 [Example 118]", 8.76),
]

[P] COc1cccc(C(=O)N2CCN(Cc3ncc(C(=O)NCc4ccc(Cl)cc4Cl)s3)CC2)n1 [Example 202]
[Q] Cc1cc(=O)oc(C)c1C(=O)N1CCN(Cc2ccc(C(=O)NCc3ccccc3C(F)(F)F)s2)CC1 [Example 36]
Which value of pIC50 is greater, the one for P or the one for Q ? Answer = label.
Q

[I] O=C(NCc1ccc(Cl)cc1Cl)c1ccc(CN2CCN(C3CCC3)CC2)s1 [Example 27]
[II] O=C(NCc1ccc(Cl)cc1Cl)c1cnc(CN2CCN(C(=O)CN3CCC(O)C3)CC2)s1 (centres unmarked) [Example 211]
Looking only at measured pIC50, which entry is lower, I or II ? Answer = label.
II

* * *

Target: recombinant sEH (soluble epoxide hydrolase, EPHX2) (Homo sapiens (Human), UniProt P34913)
Experiment: biochemical fluorometric sEH inhibition assay with Phome substrate
Conditions: recombinant sEH purified from Sf9 insect cells, 2 nM sEH, 5 μM Phome, 60 minutes at 30° C.
Method: Compounds were tested in a biochemical screening assay using recombinant sEH purified from Sf9 insect cells and an artificial substrate, (3-phenyl-oxiranyl)-acetic acid cyano-(6-methoxy-naphtalen-2-yl)-methyl ester, Phome. […] Fluorescence is measured with any suitable detector for instance a TECAN Safire or Tecan Ultra at […]. % inhibition of recombinant sEH activity is used for calculation of corresponding IC50 values as illustrated and described in the examples. […]
endpoint-label: IC50 (nM)

Sample answers from the record:
# molecule, unit-abbreviation, IC50
records = [
    ("O=C(NCc1ccc(Cl)cc1Cl)c1cnc(CN2CCN(C(=O)CN3C[C@@H](O)CC3=O)CC2)s1 [Example 210]", "nM", 52.4),
    ("O=C(NCc1ccccc1OC(F)(F)F)c1ccc(CN2CCN(C(=O)C3COCCO3)CC2)s1 (stereo not shown) [Example 147]", "nM", 1.96),
    ("O=C(NCc1ccc(Cl)cc1Cl)c1cnc(CN2CCN(C(=O)C3CCCO3)CC2)s1 (stereo not shown) [Example 182]", "nM", 18.4),
]

[P] O=C(NCc1ccccc1C(F)(F)F)c1ccc(CN2CCN(C(=O)c3nccc4ccccc34)CC2)s1 [Example 45]
[Q] Cc1cc(=O)oc(C)c1C(=O)N1CCN(Cc2ccc(C(=O)NCc3ccc(Cl)cc3F)s2)CC1 [Example 60]
Looking only at measured IC50, which entry is lower, P or Q ? Answer = label.
Q
(Q: 1.1 nM, P: 2.67 nM)

* * *

target: recombinant sEH (soluble epoxide hydrolase, EPHX2) (Homo sapiens (Human), UniProt P34913); assay: biochemical fluorometric sEH inhibition assay with Phome substrate; conditions: recombinant sEH purified from Sf9 insect cells, 2 nM sEH, 5 μM Phome, 60 minutes at 30° C.
pIC50: −log10 of the molar value.
endpoint-label: pIC50

# compound, pIC50
measured = [
    ("O=C(NCc1ccccc1OC(F)(F)F)c1ccc(CN2CCN(C3CCS(=O)(=O)C3)CC2)s1 (centres unmarked)", 8.61),
    ("Cc1noc(C)c1C(=O)N1CCN(Cc2ccc(C(=O)NCc3ccc(Cl)cc3Cl)s2)CC1", 9.30),
    ("Cc1noc(C)c1C(=O)N1CCN(Cc2ccc(C(=O)NCc3ccccc3OC(F)(F)F)s2)CC1", 8.76),
    ("O=C(NCc1ccc(Cl)cc1Cl)c1cnc(CN2CCN(C(=O)C3CCC(O)C3)CC2)s1 (centres unmarked)", 8.46),
]

[A] CC(C)CCNC(=O)c1ccc(CN2CCN(C(=O)[C@@H]3C[C@H]3c3ccccc3)CC2)s1
[B] O=C(NCc1ccccc1OC(F)(F)F)c1ccc(CN2CCN(C(=O)c3ncccc3O)CC2)s1
[C] CO[C@H](C)C(=O)N1CCN(Cc2ncc(C(=O)NCc3ccc(Cl)cc3Cl)s2)CC1
[D] COc1cc(CNC(=O)c2ccc(CN3CCN(C(=O)[C@H](O)C(C)C)CC3)s2)ccn1
Write the entries in order, lowest recorded pIC50 first. // format: requested-order list of labels
C, B, D, A
(C: 7.73, B: 8.63, D: 9.10, A: 9.36)
